The values you see were collected from patent US7435822B2.

target: μ-opioid receptor (Rattus norvegicus); construct: the forebrains are homogenized in Tris buffer in a Teflon®-glass homogenizer; from tissue; host or cells: rat (male Wistar) forebrain, particulate membrane preparation; experiment: Rat brain μ-opioid receptor binding assay
Sequence (P33535 whole entry): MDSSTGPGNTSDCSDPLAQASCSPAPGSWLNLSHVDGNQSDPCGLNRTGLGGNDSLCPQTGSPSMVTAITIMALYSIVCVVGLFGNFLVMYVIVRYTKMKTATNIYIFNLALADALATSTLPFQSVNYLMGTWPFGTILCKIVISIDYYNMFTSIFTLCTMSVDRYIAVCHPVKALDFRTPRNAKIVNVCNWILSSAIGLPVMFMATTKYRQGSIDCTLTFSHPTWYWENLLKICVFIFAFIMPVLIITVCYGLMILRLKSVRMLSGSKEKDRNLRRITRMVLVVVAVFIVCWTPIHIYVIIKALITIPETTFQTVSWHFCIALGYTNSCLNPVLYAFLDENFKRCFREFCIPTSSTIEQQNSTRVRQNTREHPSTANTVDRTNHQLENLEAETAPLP
measured-attribute: Ki (nM)
One number for each entry, in nM.

Give Ki for each of the items listed below.
1. Oc1cccc(C(=C2CC3CCC(C2)N3)c2ccsc2)c1 [Example 20]
2. Cc1ccsc1CN1C2CCC1CC(=C(c1ccsc1)c1cccc(O)c1)C2 [Example 27]
3. Oc1ccc(C(=C2CC3CCC(C2)N3CCc2ccccc2)c2ccsc2)cc1 [Example 39]
4. C=CCN1C2CCC1CC(=C(c1ccsc1)c1cccc(O)c1)C2 [Example 22]
5. Cc1ccccc1CN1C2CCC1CC(=C(c1ccc(O)cc1)c1ccsc1)C2 [Example 40]
6. Cc1ccccc1CN1C2CCC1CC(=C(c1ccsc1)c1cccc(O)c1)C2 [Example 24]
7. Cc1ccc(CN2C3CCC2CC(=C(c2ccc(O)cc2)c2ccsc2)C3)s1 [Example 44]

stdout:
[24.7, 30.4, 166, 26, 64.8, 48.6, 75.2]

Give Ki for each of the items listed below.
1. Oc1cccc(C(=C2CC3CCC(C2)N3Cc2ccccc2Cl)c2ccsc2)c1 [Example 25]
2. Oc1cccc(C(=C2CC3CCC(C2)N3Cc2cccs2)c2ccsc2)c1 [Example 26]

stdout:
34.2
5.4
